Where do the numbers come from? From patent US20050009730A1.

target-entity: Histamine, H1 (Homo sapiens)
method-description: H1 binding assay by displacement of known standards
setup-conditions: read-out: H1 Ki
Entries and their measured pKi follow.
Please keep in mind that pKi is minus log10 of the molar concentration; only the number is needed.

For orientation, consider the following solved cases.
CC(C)COC(=O)CCN1CCC(=C(c2ccccc2)c2ccccc2)CC1 [Series 11e]
6.55
Cl.O=C(O)CCN1CCC(=C(c2ccccc2)c2ccccc2)CC1 [Series 11a]
6.92
O=C(CCN1CCC(=C(c2ccccc2)c2ccccc2)CC1)OC1CCCC1.O=C(O)C(=O)O [Series 11f]
6.38
O=C(CCN1CCC(=C(c2ccccc2)c2ccccc2)CC1)OC1CCOC1 (stereo not shown) [Series 11h]
7.05
O=C(CCN1CCC(=C(c2ccccc2)c2ccccc2)CC1)OC1CCOCC1 [Series 11i]
7.06
O=C(CCN1CCC(=C(c2ccccc2)c2ccccc2)CC1)O[C@H]1CCOC1 [Series 11g]
7.06

Consider the record given below.
Retrieve pKi measured for CC(C)OC(=O)CCN1CCC(=C(c2ccccc2)c2ccccc2)CC1 [Series 11d] and print it.
6.83

###

target-entity: M3 muscarinic receptor (Homo sapiens, UniProt P20309)
Sequence (P20309 whole entry): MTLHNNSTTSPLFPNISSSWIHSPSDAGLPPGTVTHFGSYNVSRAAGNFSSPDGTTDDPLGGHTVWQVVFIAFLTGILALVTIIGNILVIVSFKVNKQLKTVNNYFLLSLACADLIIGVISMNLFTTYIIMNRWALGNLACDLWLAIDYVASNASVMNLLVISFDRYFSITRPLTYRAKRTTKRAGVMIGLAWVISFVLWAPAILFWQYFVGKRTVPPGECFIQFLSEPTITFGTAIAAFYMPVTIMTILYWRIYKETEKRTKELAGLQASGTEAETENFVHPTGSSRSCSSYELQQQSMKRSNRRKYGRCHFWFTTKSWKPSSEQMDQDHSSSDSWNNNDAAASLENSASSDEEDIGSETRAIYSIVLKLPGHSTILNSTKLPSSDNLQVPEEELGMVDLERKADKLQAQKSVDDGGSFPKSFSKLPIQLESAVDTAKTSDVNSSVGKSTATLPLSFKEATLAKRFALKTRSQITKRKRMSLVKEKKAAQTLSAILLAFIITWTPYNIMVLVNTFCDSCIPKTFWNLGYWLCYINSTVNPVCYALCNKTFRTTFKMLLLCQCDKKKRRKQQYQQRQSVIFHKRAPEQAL
test-readout: pKi
Please keep in mind that pKi is minus log10 of the molar concentration; only the number is needed.

Retrieve pKi measured for O=C(CCN1CCC(=C(c2ccccc2)c2ccccc2)CC1)O[C@H]1CCOC1 [Series 11g] and print it.
5.81

###

System: Male Wistar rats
method-description: Sleep-wakefulness, locomotor activity and body temperature monitoring (SCORE-2000), treatment at CT-18
setup-conditions: 30 mg/kg PO, at CT-18
// False strictly below 60 %/hr in NREM Peak; True otherwise

Would you please look over these solved cases?
Cc1ccc(/C(=C\CN2CCCC2)c2cccc(C(=O)O)n2)cc1 [Series 16a]
False
O=C(O)CCN1CCC(=C2c3ccccc3COc3ccccc32)CC1
True
CC(C)(CN1CCC(=C2c3ccccc3COc3ccccc32)CC1)C(=O)O [Series 74a]
True
O=C(O)CCCN1CCC(=C2c3ccccc3COc3ccccc32)CC1 [Series 73a]
True
Cl.O=C(O)CCN1CCC(=C(c2ccccc2)c2ccccc2)CC1 [Series 11a]
True

hey, is NREM Peak for this one >= 60 %/hr? O=C(O)CN1CCC(=C2c3ccccc3COc3ccccc32)CC1
False

hey, is NREM Peak for this one >= 60 %/hr? Cl.O=C(O)CCN1CCC(OC(c2ccccc2)c2ccccc2)CC1
False

hey, is NREM Peak for this one >= 60 %/hr? Cl.O=C(O)CCCN1CCC(OC(c2ccccc2)c2ccccc2)CC1 [Series 53a]
False

hey, is NREM Peak for this one >= 60 %/hr? CC(C)OC(=O)CN1CCC(=C2c3ccccc3COc3ccccc32)CC1 [dox7d-oxalate]
True

###

target-entity: Histamine, H1 (Homo sapiens, UniProt P35367)
Sequence (P35367 whole entry): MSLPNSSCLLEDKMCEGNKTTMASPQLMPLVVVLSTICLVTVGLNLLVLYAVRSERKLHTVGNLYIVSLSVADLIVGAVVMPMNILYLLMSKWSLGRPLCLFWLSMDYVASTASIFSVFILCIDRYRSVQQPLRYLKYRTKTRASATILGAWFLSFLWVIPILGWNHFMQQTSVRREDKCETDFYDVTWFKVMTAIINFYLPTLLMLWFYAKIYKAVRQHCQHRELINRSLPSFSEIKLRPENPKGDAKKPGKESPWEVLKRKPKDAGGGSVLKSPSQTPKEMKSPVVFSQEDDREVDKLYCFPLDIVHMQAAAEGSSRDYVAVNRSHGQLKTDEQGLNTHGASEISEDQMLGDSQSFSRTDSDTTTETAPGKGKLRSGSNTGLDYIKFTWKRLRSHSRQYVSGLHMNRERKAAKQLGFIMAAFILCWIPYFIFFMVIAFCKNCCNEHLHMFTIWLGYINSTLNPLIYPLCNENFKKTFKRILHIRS
test-readout: pIC50
Please keep in mind that pIC50 is minus log10 of the molar concentration; only the number is needed.

For orientation, consider the following solved cases.
O=C(CCN1CCC(=C(c2ccccc2)c2ccccc2)CC1)OC1CCOC1 (stereo not shown) [Series 11h]
6.70
CC(C)COC(=O)CCN1CCC(=C(c2ccccc2)c2ccccc2)CC1 [Series 11e]
6.14
CC(C)OC(=O)CCN1CCC(=C(c2ccccc2)c2ccccc2)CC1 [Series 11d]
6.42

Retrieve pIC50 measured for O=C(CCN1CCC(=C(c2ccccc2)c2ccccc2)CC1)OC1CCOCC1 [Series 11i] and print it.
6.70

Retrieve pIC50 measured for O=C(CCN1CCC(=C(c2ccccc2)c2ccccc2)CC1)O[C@H]1CCOC1 [Series 11g] and print it.
6.71

Retrieve pIC50 measured for O=C(CCN1CCC(=C(c2ccccc2)c2ccccc2)CC1)OC1CCCC1.O=C(O)C(=O)O [Series 11f] and print it.
5.97

Retrieve pIC50 measured for Cl.O=C(O)CCN1CCC(=C(c2ccccc2)c2ccccc2)CC1 [Series 11a] and print it.
6.51

###

Entries and their measured Ki follow.
target-entity: Histamine, H1 (Homo sapiens)
method-description: H1 binding assay by displacement of known standards
setup-conditions: read-out: Receptor Binding Data (Ki nM) H1
Dear colleague, please return just the value in nM, with no unit written.

Cc1ccc(/C(=C\CN2CCCC2)c2cccc(C(=O)O)n2)cc1 [Series 16a]
43.9

Retrieve Ki measured for CC(C)(CN1CCC(=C2c3ccccc3COc3ccccc32)CC1)C(=O)O [Series 74a] and print it.
109

Retrieve Ki measured for O=C(O)CCCN1CCC(=C2c3ccccc3COc3ccccc32)CC1 [Series 73a] and print it.
42.8

Retrieve Ki measured for O=C(O)CCN1CCC(=C2c3ccccc3COc3ccccc32)CC1 and print it.
62.5

###

target-entity: M1 muscarinic receptor (Homo sapiens, UniProt P11229)
Sequence (P11229 whole entry): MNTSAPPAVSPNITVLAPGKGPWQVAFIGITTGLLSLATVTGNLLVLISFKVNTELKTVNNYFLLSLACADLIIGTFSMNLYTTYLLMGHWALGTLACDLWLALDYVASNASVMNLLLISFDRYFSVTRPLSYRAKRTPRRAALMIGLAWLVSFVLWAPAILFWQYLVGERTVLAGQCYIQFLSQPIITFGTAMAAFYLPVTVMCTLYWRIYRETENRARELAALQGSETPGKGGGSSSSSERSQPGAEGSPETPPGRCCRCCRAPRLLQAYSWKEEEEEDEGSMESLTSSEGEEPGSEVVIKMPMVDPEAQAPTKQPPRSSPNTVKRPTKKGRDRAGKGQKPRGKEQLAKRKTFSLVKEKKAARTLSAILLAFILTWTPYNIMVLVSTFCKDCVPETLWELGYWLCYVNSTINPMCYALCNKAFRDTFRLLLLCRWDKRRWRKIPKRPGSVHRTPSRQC
method-description: M1 binding assay by displacement of known standards (Example 11)
test-readout: IC50 (µM)
Dear colleague, please return just the value in µM, with no unit written.

Given O=C(CCN1CCC(=C(c2ccccc2)c2ccccc2)CC1)O[C@H]1CCOC1 [Series 11g] , report its IC50 on M1 muscarinic receptor (Homo sapiens, UniProt P11229).
4.68

###

target-entity: M3 muscarinic receptor (Homo sapiens, UniProt P20309)
method-description: M3 binding assay by displacement of known standards (Example 11)
test-readout: pIC50
Please keep in mind that pIC50 is minus log10 of the molar concentration; only the number is needed.

Given O=C(CCN1CCC(=C(c2ccccc2)c2ccccc2)CC1)O[C@H]1CCOC1 [Series 11g] , report its pIC50 on M3 muscarinic receptor (Homo sapiens, UniProt P20309).
5.24

###

System: Male Wistar rats
method-description: Sleep-wakefulness, locomotor activity and body temperature monitoring (SCORE-2000), treatment at CT-18
setup-conditions: 30 mg/kg PO, at CT-18
Entries and their measured Onset follow.

For orientation, consider the following solved cases.
CC(C)(CCN1CCC(=C2c3ccccc3COc3ccccc32)CC1)C(=O)O [Series 75a]
70 to 85 min
CC(C)OC(=O)CCN1CCC(=C(c2ccccc2)c2ccccc2)CC1 [Series 11d]
135 min
CC(C)OC(=O)CN1CCC(=C2c3ccccc3COc3ccccc32)CC1 [dox7d-oxalate]
85 min
O=C(O)CCN1CCC(=C2c3ccccc3COc3ccccc32)CC1 [Series 8a]
65 min
O=C(O)CCCN1CCC(=C2c3ccccc3COc3ccccc32)CC1 [Series 73a]
45 min

Retrieve Onset measured for CC(C)(CN1CCC(=C2c3ccccc3COc3ccccc32)CC1)C(=O)O [Series 74a] and print it.
70 to 80 min

Retrieve Onset measured for O=C(O)CN1CCC(=C2c3ccccc3COc3ccccc32)CC1 [Series 7a] and print it.
130 min

Retrieve Onset measured for CC(C)COC(=O)CCN1CCC(=C(c2ccccc2)c2ccccc2)CC1 [Series 11e] and print it.
80 min

Retrieve Onset measured for Cl.O=C(O)CCN1CCC(OC(c2ccccc2)c2ccccc2)CC1 [Series 6a] and print it.
65 min

###

System: Male Wistar rats
method-description: Sleep-wakefulness, locomotor activity and body temperature monitoring (SCORE-2000), treatment at CT-18
setup-conditions: 30 mg/kg PO, at CT-18
Entries and their measured NREM Peak follow.
Dear colleague, please return just the value in %/hr, with no unit written.

For orientation, consider the following solved cases.
CC(C)(CCN1CCC(=C2c3ccccc3COc3ccccc32)CC1)C(=O)O [Series 75a]
58.8
CC(C)COC(=O)CCN1CCC(=C(c2ccccc2)c2ccccc2)CC1 [Series 11e]
59.6

Consider the record given below.
Retrieve NREM Peak measured for CC(C)OC(=O)CCN1CCC(=C(c2ccccc2)c2ccccc2)CC1 [Series 11d] and print it.
58.5

###

target-entity: Histamine, H1 (Homo sapiens, UniProt P35367)
method-description: H1 binding assay by displacement of known standards
setup-conditions: read-out: Receptor Binding Data (Ki nM) H1
test-readout: log10(Ki) (log10 of the value in nM)
# log10 transformed; quantity=Ki; unit=nM

CC(C)(CCN1CCC(=C2c3ccccc3COc3ccccc32)CC1)C(=O)O [Series 75a]
1.68
Cl.O=C(O)CCN1CCC(OC(c2ccccc2)c2ccccc2)CC1 [Series 6a, hydrochloride]
1.75
CC(C)OC(=O)CN1CCC(=C2c3ccccc3COc3ccccc32)CC1 [dox7d-oxalate]
2.30
Cl.O=C(O)CCCN1CCC(OC(c2ccccc2)c2ccccc2)CC1 [Series 53a]
1.21

Consider the record given below.
Retrieve log10(Ki) measured for O=C(O)CN1CCC(=C2c3ccccc3COc3ccccc32)CC1 and print it.
1.74

###

Entries and their measured Onset follow.
Tested on: Male Wistar rats
method-description: Sleep-wakefulness, locomotor activity and body temperature monitoring (SCORE-2000), treatment at CT-18
setup-conditions: 30 mg/kg PO, at CT-18

For orientation, consider the following solved cases.
Cl.O=C(O)CCCN1CCC(OC(c2ccccc2)c2ccccc2)CC1 [Series 53a]
30 min
Cc1ccc(/C(=C\CN2CCCC2)c2cccc(C(=O)O)n2)cc1 [Series 16a]
180 min

Consider the record given below.
Retrieve Onset measured for Cl.O=C(O)CCN1CCC(=C(c2ccccc2)c2ccccc2)CC1 [Series 11a] and print it.
85 min
